study_target: Apelin receptor (Homo sapiens) (UniProt P35414)
Sequence (P35414 whole entry, looked up): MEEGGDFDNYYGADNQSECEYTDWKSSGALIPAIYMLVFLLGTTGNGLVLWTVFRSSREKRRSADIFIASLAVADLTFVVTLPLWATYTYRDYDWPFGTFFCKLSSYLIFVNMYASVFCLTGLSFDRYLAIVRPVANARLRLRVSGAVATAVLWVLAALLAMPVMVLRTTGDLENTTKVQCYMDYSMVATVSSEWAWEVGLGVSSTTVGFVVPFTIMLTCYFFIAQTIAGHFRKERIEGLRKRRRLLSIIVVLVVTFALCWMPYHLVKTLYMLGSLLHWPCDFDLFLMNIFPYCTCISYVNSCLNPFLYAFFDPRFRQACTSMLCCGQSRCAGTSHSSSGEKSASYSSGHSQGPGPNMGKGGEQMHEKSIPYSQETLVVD
test: antagonists of human apelin receptor APJ, primary screen, CHO-K1 cells, beta-arrestin complementation, luminescence (AID 2521);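 note: cells challenged with 10 nM apelin-13 agonist together with compound; plate controls were apelin-13 plus DMSO wells for no effect and DMSO wells lacking apelin-13 for full effect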
conditions_used: at 20 µM, active compounds read high
Hit rate of the full screen: of about 330,000 compounds, about 1,100 (0.33%) were called active. Only a selection was taken, and actives are over-represented in it overall.
property_measured: inhibition (%)
Give the value, in units of %, as a plain number.

Identify inhibition associated with the compound O=C(O)CC1S/C(=N\N=C/c2ccccc2O)N(c2ccc(O)cc2)C1=O (stereo not given)
-8.74

Identify inhibition associated with the compound c1ccc2cc(CCCc3cc4ccccc4cn3)ncc2c1
9.5

Identify inhibition associated with the compound COC(=O)c1ccc(NCC(=O)N2CCCCCC2)cc1
-5.46

Identify inhibition associated with the compound CC(OC(=O)CN1C(=O)c2ccccc2C1=O)C(=O)c1ccccc1 (stereo not given)
23

Identify inhibition associated with the compound CCc1ccc2c(c1)C1(NN=C(c3ccccc3)S1)C(=O)N2 (stereo not given)
43.3

Identify inhibition associated with the compound CN(C)CCOc1cccc(Br)c1
7.12

Identify inhibition associated with the compound Cc1cccc(-n2c(O)c(C=Nc3ccccc3N)c(=O)[nH]c2=O)c1
55.5

Identify inhibition associated with the compound O=[N+]([O-])C(=c1ccc2c(c1)N1C3=C(CCCC3)CC3CCCCC31N=2)[N+](=O)[O-] (stereo not given)
-3.42

Identify inhibition associated with the compound c1ccc(Cc2nn3c(Cn4cnc5ccccc54)nnc3s2)cc1
7.67

Identify inhibition associated with the compound Cc1cc(CNCc2c(C(=O)N(C)Cc3ccccc3)nc3ccccn23)nn1C
12.9

Identify inhibition associated with the compound CCNS(=O)(=O)c1ccc(NC(=O)c2cncc(Br)c2)cc1
3.77

Identify inhibition associated with the compound Cc1csc(NC(=O)CSc2nnc(-c3cccnc3)o2)n1
14.2

Identify inhibition associated with the compound COc1cc(/C=C2/SC(=S)N(Cc3ccccc3)C2=O)cc(OC)c1O
44.9

Identify inhibition associated with the compound CC(=O)Nc1ccc(NC(=O)CSC2=NS(=O)(=O)c3ccccc3N2)cc1
17.4

Identify inhibition associated with the compound COc1cccc(/C=C2/SC(=S)N(CC(=O)NC3C=CS(=O)(=O)C3)C2=O)c1 (stereo not given)
2.32

Identify inhibition associated with the compound O=C(NC1CCCCC1)C1CCC(CNS(=O)(=O)c2ccccc2)CC1 (stereo not given)
-0.098

Identify inhibition associated with the compound CCOC(=O)N/N=C/c1cccnc1
11.3

Identify inhibition associated with the compound CCOC(=O)CCNC(=O)N1CCCC(C(=O)c2ccccc2SC)C1 (stereo not given)
-13.5

Identify inhibition associated with the compound Cc1ccc(N2CCN(S(=O)(=O)c3ccc(F)cc3)CC2)c(C)c1
17.5

Identify inhibition associated with the compound COc1cc(/C=N\NC(=O)CNC(=O)c2cccc([N+](=O)[O-])c2)ccc1O
53.6

Identify inhibition associated with the compound COC(=O)c1nc2n(n1)C(c1ccc([N+](=O)[O-])cc1)C(C(=O)Nc1ccc(Cl)cc1)=C(C)N2 (stereo not given)
2.59

Identify inhibition associated with the compound Cc1ccc(CC(=O)Nc2cccc(C#N)c2)cc1
7.58

Identify inhibition associated with the compound Cn1cc[n+](C)c1COc1ccc(C=O)cc1
-7.79

Identify inhibition associated with the compound Cc1cccc(N2CCN(S(=O)(=O)c3ccc4[nH]c(=O)c(=O)[nH]c4c3)CC2C)c1 (stereo not given)
0.293

Identify inhibition associated with the compound CCC1Nc2ncnc(N3CCN(c4ccccc4)CC3)c2N(Cc2ccc(Cl)cc2)C1=O (stereo not given)
85.9

Identify inhibition associated with the compound Cc1ccc(N=Cc2c(O)n(-c3nccs3)c(=O)c3ccccc23)c(C)c1
-0.923

Identify inhibition associated with the compound O=C(CN1CCN(c2ccc(Cl)cc2)CC1)c1ccccc1
-15.1

Identify inhibition associated with the compound CCc1nc2cccnc2n1-c1ccc(C(=O)O)cc1
1.09

Identify inhibition associated with the compound CCOC(=O)c1cnc(Nc2nc3ccccc3o2)nc1CSC(=S)N1CCCCC1
44.1

Identify inhibition associated with the compound COc1ccccc1OC(C)C(=O)Nc1ccc(S(=O)(=O)Nc2nccs2)cc1 (stereo not given)
5.98

Identify inhibition associated with the compound Cc1ccc(C)c2[nH]c(=O)c(CN(Cc3cccnc3)C(=S)NCc3ccco3)cc12
5.44

Identify inhibition associated with the compound O=C1C(Cc2ccc(O)cc2)NC(=S)N1Cc1ccccc1 (stereo not given)
7.09

Identify inhibition associated with the compound COC(=O)c1ccc(NCC(=O)c2ccccc2)cc1
72.4

Identify inhibition associated with the compound O=C(c1ccc(Cl)s1)N(Cc1nnc(-c2ccccc2Cl)o1)C1CC1
-57.5

Identify inhibition associated with the compound O=C(Nc1c2c(nn1-c1cccc(Cl)c1)CS(=O)(=O)C2)c1cccs1
-12.4

Identify inhibition associated with the compound CCc1c(C)sc(NC(=O)c2cccs2)c1C(N)=O
1.68

Identify inhibition associated with the compound COCCCNc1nc2ccccc2nc1NS(=O)(=O)c1ccc(F)cc1
8.77

Identify inhibition associated with the compound COc1ccc(C(=O)NCC(=O)N/N=C/c2ccc([N+](=O)[O-])o2)cc1OC
-1.61

Identify inhibition associated with the compound COc1ccc(/C=N/N=C2/C(=O)Nc3ccccc32)cc1O
-11.9

Identify inhibition associated with the compound O=C(c1cccc(-n2cccc2)c1)N1CCN(S(=O)(=O)c2ccc(F)cc2)CC1
-9.43

Identify inhibition associated with the compound CCOC(=O)C(CCOc1cccc(CC)c1)C(=O)OCC
0.162

Identify inhibition associated with the compound O=C(O)C1CCCN(CCC=C(c2ccccc2)c2ccccc2)C1 (stereo not given)
6.7

Identify inhibition associated with the compound CSCCC(NC(=O)COc1ccccc1)C(=O)OCC(=O)c1cc2ccccc2o1 (stereo not given)
56.3

Identify inhibition associated with the compound Cc1ccc(NC(=S)N(CCCN2CCCC2)Cc2cccn2Cc2ccc(Cl)cc2)cc1
-11.3

Identify inhibition associated with the compound O=C(C1CC(=O)N(c2ccc(Br)cc2)C1)N1CCCC1 (stereo not given)
-9.51

Source: PubChem BioAssay AID2521
